Numbers sourced from BindingDB's records for doi:10.1016/j.chembiol.2011.05.010.

Molecular target: Homeodomain-interacting protein kinase 2 (Homo sapiens, UniProt Q9H2X6)
Sequence (Q9H2X6 whole entry): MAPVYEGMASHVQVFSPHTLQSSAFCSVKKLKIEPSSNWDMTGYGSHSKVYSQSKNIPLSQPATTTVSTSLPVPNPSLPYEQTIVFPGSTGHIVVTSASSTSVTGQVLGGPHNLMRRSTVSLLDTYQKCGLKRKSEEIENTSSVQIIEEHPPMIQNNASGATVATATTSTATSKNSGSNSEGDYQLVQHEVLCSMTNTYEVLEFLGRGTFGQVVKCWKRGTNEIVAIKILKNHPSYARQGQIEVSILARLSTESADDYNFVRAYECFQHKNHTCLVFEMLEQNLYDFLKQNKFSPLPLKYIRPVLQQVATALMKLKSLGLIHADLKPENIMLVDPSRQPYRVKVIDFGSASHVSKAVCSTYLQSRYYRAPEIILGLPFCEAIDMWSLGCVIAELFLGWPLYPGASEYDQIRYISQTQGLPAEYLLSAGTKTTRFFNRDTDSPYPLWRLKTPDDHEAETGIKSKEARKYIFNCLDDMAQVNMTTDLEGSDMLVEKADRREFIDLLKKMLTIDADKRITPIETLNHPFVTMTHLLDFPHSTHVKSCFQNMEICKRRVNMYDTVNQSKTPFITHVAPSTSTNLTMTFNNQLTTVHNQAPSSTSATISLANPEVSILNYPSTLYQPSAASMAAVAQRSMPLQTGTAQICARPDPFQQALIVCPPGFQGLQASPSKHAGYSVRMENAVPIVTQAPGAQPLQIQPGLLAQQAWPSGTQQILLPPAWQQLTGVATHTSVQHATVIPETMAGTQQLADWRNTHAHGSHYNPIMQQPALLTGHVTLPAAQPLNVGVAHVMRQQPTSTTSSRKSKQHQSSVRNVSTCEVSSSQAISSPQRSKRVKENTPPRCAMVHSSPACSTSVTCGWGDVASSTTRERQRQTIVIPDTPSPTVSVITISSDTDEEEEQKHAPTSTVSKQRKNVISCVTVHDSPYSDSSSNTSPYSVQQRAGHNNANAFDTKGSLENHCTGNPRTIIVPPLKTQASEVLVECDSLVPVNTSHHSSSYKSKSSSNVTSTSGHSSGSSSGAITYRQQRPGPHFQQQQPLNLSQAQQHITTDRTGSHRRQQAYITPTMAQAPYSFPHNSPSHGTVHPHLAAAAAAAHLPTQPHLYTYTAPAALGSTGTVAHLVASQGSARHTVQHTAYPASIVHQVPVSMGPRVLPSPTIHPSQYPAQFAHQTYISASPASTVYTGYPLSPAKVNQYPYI
readout: Kd (nM)

[[record]]
compound = "N=C1NC(=O)/C(=C\\c2c[nH]c(=O)c(-c3ccc(N4CCNCC4)nc3)c2)S1 [Furan thiazolidinediones, A64]"
readout = "Kd"
endpointvalue = 9.5


---

Target: UniProt:Q96GD4
Sequence (Q96GD4 whole entry): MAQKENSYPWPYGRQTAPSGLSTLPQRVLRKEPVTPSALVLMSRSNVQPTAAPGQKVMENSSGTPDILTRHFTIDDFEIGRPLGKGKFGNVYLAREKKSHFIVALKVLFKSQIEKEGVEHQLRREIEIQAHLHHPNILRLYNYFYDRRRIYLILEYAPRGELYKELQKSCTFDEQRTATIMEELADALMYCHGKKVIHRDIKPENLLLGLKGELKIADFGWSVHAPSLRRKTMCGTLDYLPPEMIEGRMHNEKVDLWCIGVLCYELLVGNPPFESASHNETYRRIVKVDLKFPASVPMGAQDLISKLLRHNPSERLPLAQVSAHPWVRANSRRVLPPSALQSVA
pIC50: −log10 of the molar value.
readout: pIC50

[[record]]
smilesrepresentation = "CN1C(=O)c2ccccc2N(C)c2nc(Nc3ccc(N4CCC(O)CC4)cc3)ncc21"
endpointvalue = 7.62


---

Target: Homeodomain-interacting protein kinase 2 (Homo sapiens, UniProt Q9H2X6)
pIC50: −log10 of the molar value.
readout: pIC50

[[record]]
compound = "N=C1NC(=O)/C(=C\\c2c[nH]c(=O)c(-c3ccc(N4CCNCC4)nc3)c2)S1 [Furan thiazolidinediones, A64]"
endpointvalue = 7.13

